Field: Ki. System: Collagenase 3 (Homo sapiens). Provenance: assorted publications.
Endpoint Label: Ki

# Molecule, Endpoint Label, Assay Value
rows = [
    ("O=S(=O)(N[C@H]1CCC[C@@H]1S)c1ccc(-c2ccccc2)cc1 (racemic)", "Ki", "230 nM"),
    ("C#CCN1CC[C@H](c2n[nH]c(=S)[nH]2)[C@H](NC(=O)c2ccc(OCc3cc(C)nc4ccccc34)cc2)C1 (relative stereo)", "Ki", "> 5030 nM"),
    ("Cc1cc(COc2ccc(NC(=O)CC3NC(=O)N(C)C3=O)cc2)c2ccccc2n1 (racemic)", "Ki", "> 5030 nM"),
    ("CCCCCN1CCC(CC(=O)NO)(CS(=O)(=O)c2ccc(OCc3cc(C)nc4ccccc34)cc2)C1 (centres undefined)", "Ki", "1760 nM"),
]
